As shown below, each of these molecules has a reported growth value.
System: OVCAR-4 ovarian
Experiment: NCI-60 one-dose screen, 48 h (100 = growth as untreated, 0 = no growth, -100 = all killed)
Details: 10 µM unless noted
About 83,000 compounds went through this panel and 20% of them were active in at least one assay; those are over-represented in the sample as a whole.
Numbers only here, please. The scale is %.

O=C1N(Cc2ccccc2Cl)c2ccccc2C12NN=C(c1cccc(Cl)c1)S2 (centres undefined)	-13.9

Please look up its growth: "CCOC(=O)c1c2c(n3ccc(C)cc13)C(=O)c1ccccc1C2=O"
101

Now try "CCOc1nc(-c2ccccc2)cc2c(O)c(C(=O)NN)[nH]c(=O)c12" .
100

Now try "CCCCNc1ccc(C#N)c(OCCN(CC)CC)c1" .
105

Now try COc1ccc(C(c2cc(OC)c(OC)c(OC)c2)N2CCN(c3ccccc3)CC2)cc1 (centres undefined) .
89.9

Now try "C=C(C)[C@@H]1CC[C@]2(C(=O)OC)CC[C@]3(C)[C@H](CC[C@@H]4[C@@]5(C)C/C(=C/NC(N)=S)C(=O)C(C)(C)[C@@H]5CC[C@]43C)[C@@H]12" .
84.2

Now try "COc1ccc(C2=Nc3c/c(=C\c4c(O)[nH]c5ccc(Cl)cc45)ccc3=N2)cc1" .
64.2

Now try CC1Cc2c(Cl)ncnc2N(C)c2ccc(F)cc21 (centres undefined) .
95.4

Now try "C/C(=N\NC(=O)c1ccccc1O)c1cccc(/C(C)=N/NC(=O)c2ccccc2O)n1" .
35.4

---

As shown below, each of these molecules has a reported growth value.
Tested on: HCT-15 colon
Experiment: NCI-60 one-dose screen, 48 h (100 = growth as untreated, 0 = no growth, -100 = all killed)
Details: 10 µM unless noted
Compounds without any hit were thinned out: in the full panel of roughly 83,000, 20% have a hit.
Numbers only here, please. The scale is %.

Some molecules with known growth results, for comparison:
COc1ccc(-c2nc3c(c(-c4ccccc4)nn3-c3ccccc3)c(-c3ccc(N4CCOCC4)cc3)c2C#N)cc1	91.4
CCOC(=O)C(=Cc1cccc(Cl)c1)C(=O)OCC	-51.1
CCOC(=O)c1c(NC(=O)c2ccc(C(C)C)cc2)sc2c(CN(C)C)c(O)ccc12	-49.2
CC(=O)N(N=Nc1ccccc1)c1cccc2ccccc12	17.1

Next molecule, please.
Please look up its growth: "COCCn1c(-c2csc(-c3cn(C)c4ccc(OC)cc34)n2)cc2cccnc21"
7.45

---

System: NCI-H23 lung
Test: NCI-60 one-dose screen, 48 h (100 = growth as untreated, 0 = no growth, -100 = all killed)
Conditions: 10 µM unless noted
The panel holds about 83,000 compounds, 20% with a hit somewhere; the sample as a whole holds those more often.
In plain terms, low growth, meaning strictly below 80%, gives 1, and everything else gives 0.

Worked cases, answers included:
COc1ccc(/C=C2\COc3ccc(O)c(O)c3C2=O)cc1	1
CC(O)c1cnc(/C=C2\SC(=S)N(Cc3ccccc3)C2=O)s1 (centres undefined)	0
CCN(CC)c1nc(SCc2ccccc2Cl)ncc1C	0

Below 80% on growth? Entry "CC[C@]12C=CCN3CC[C@@]4(c5cc(NC(=O)CCC(=O)OCc6cn(Cc7ccc(F)cc7)nn6)c(OC)cc5N(C)[C@H]4[C@@](O)(C(=O)OC)[C@@H]1OC(C)=O)[C@@H]32"
0

Now try N#CC1C=CN(CC(N)=O)c2ccc3cccnc3c21 (centres undefined) .
0

Now try "S=C(Nc1ccc(-c2nc(N3CCOCC3)c3cccn3n2)cc1)Nc1cccnc1" .
1

Now try N#CC1=C(N)Oc2c(sc3c(Br)cccc23)C1c1ccc(F)cc1 (centres undefined) .
1

---

System: SNB-19 CNS
Assay: NCI-60 one-dose screen, 48 h (100 = growth as untreated, 0 = no growth, -100 = all killed)
Settings: 10 µM unless noted
The panel holds about 83,000 compounds, 20% with a hit somewhere; the sample as a whole holds those more often. The source made the active and inactive calls. The calls were made as follows: active = growth percent below 10; inactive = the rest.
Readout Kind: growth

Some compounds with known growth results, for comparison:
O=C(CCC(=O)N/N=C/c1ccccc1O)N/N=C/c1ccccc1O	57.9% (inactive)
O=S(=O)(NCCCNc1nccc(-c2c(-c3ccc(F)c(O)c3)nc3occn23)n1)c1ccccc1	113% (inactive)
Cc1ccc(CNc2ccc(Cl)cc2NCc2ccc(C)c(O)c2)cc1O	29.5% (inactive)
Fc1cc2c(cc1Cl)N(c1ncnc3ccc(-c4cnc5[nH]ncc5c4)cc13)CC2	69.4% (inactive)
O=C(CSc1nc2ccc([N+](=O)[O-])cc2[nH]1)Nc1cccc(C(F)(F)F)c1	15.2% (inactive)
O=C1c2c(c3c4ccccc4[nH]c3c3ccc4ccccc4c23)C(=O)N1CCN1CCCCC1	42.4% (inactive)
CCOC(=O)c1c(C)c2c(n1C)CSc1cc(C(=O)c3ccccc3)c(=O)[nH]c1-2	102% [100 µM] (inactive)
N#Cc1c(-c2ccc(Cl)cc2)nc(NN=Cc2cccc(O)c2)nc1N1CCOCC1	86.9% (inactive)
CC(C)c1ccc(COCc2cc(CN3CCCC3)c(O)c3ncccc23)cc1	17.3% (inactive)
COc1cc2c(c(OC)c1OC)C(=O)CC(c1cccc(NC(=O)c3ccc(Br)cc3)c1)O2 (stereo unspecified)	64.6% (inactive)

Please look up its growth: "O=c1c2cc(-c3ccccc3)sc2nc2sc(-c3ccccc3)nn12"
102% (inactive)

---

Test system: NCI/ADR-RES ovarian
Assay: NCI-60 one-dose screen, 48 h (100 = growth as untreated, 0 = no growth, -100 = all killed)
Conditions: 10 µM unless noted
The panel holds about 83,000 compounds, 20% with a hit somewhere; the sample as a whole holds those more often. Active and inactive are the calls of the source. How the source made its calls: active means growth percent below 10; inactive means the rest.
As shown below, each of these molecules has a reported growth value.

Brc1ccc(-n2cc(-c3nn[nH]n3)c(-c3cccs3)n2)cc1	107% (inactive)
COc1ccc2c(O)c(/C=C3\N=Nc4ncccc43)oc2c1C[C@H]1CCNC[C@H]1F	31.3% (inactive)
COC(=O)c1cc(-c2ccc(S(C)(=O)=O)cc2)[nH]c1N/N=C/c1c(Cl)cccc1Cl	3.91% (active)
Cc1cnc(C(=O)NNc2nc3sc4c(c3c(=O)n2C)C(C)CCC4)cn1 (centres undefined)	1.29% (active)
CC1(c2ccccc2O)NN=C(/N=C/c2cccc([N+](=O)[O-])c2)N1C(Cc1c[nH]c2ccccc12)C(=O)O (centres undefined)	97.1% (inactive)

Item "Cc1ccc(-c2nc(N3CCNCC3)c3oc(-c4ccccc4)nc3n2)cc1" with NCI/ADR-RES ovarian - growth?
-23.1% (active)

Now try COc1cc2c(c(OC)c1OC)CCC(c1cccc(C(=O)Nc3cccc(Br)c3)c1)O2 (centres undefined) .
79.6% (inactive)

Now try "CCc1n(Cc2ccc3ccccc3c2)cc[n+]1Cc1ccc2ccccc2c1" .
92.5% (inactive)

Now try "COc1ccc(-c2csc(N(C(=O)N3CCN(c4cc5c(cc4F)c(=O)c(C(=O)O)cn5C4CC4)CC3)c3ccccc3)n2)cc1" .
11.8% (inactive)

---

System: NCI-H522 lung
Assay: NCI-60 one-dose screen, 48 h
Settings: 10 µM unless noted
This is part of a sample that, as a whole, favours compounds with a hit. Of some 83,000 tested, about 20% had one in any assay. Calls of active or inactive are those of the source. How the source made its calls: active means growth percent below 10; inactive means the rest.
Pick from active, inactive when you respond.

Worked cases, answers included:
CCCCCOc1ccc(C(=O)/C(Br)=C/C(=O)O)cc1	inactive
O=C1c2ccc3c4ccc5c6c(ccc(c7ccc(c2c37)C(=O)N1CCC[P+](c1ccccc1)(c1ccccc1)c1ccccc1)c64)C(=O)N(CCC[P+](c1ccccc1)(c1ccccc1)c1ccccc1)C5=O	inactive
COc1ccccc1Nc1nc2c(s1)C1=CC[C@H]3[C@@H]4CC[C@H]([C@H](C)CCCC(C)C)[C@@]4(C)CC[C@@H]3[C@@]1(C)CC2	inactive

Would you mind telling me which call this test gave "CCOC(=O)c1ccc2[nH]c(O)c(C(=Nc3ccc(N(C)C(=O)CN4CCN(C)CC4)cc3)c3ccccc3)c2c1" ?
active

Now try "COc1cc(C(=O)n2nc(N3CCN(C)CC3)c3cc(N)ccc32)cc(OC)c1OC" .
active

Now try "CC(C)N1CCN(Cc2ccc3c(NNC(=O)c4ccccc4)nc4cc(F)ccc4n23)CC1" .
inactive

Now try "CN(C)c1ccc(Nc2cc(-c3cccc(OC(F)(F)F)c3)nc3ccc(N4CCCC4)cc23)cc1" .
inactive

Now try "COc1ccc(NC(=O)c2sc3nc(C)c(C(=O)/C=C/c4cccc(OC)c4)cc3c2N)cc1" .
inactive

---

As shown below, each of these molecules has a reported growth value.
System: TK-10 renal
Assay: NCI-60 one-dose screen, 48 h (100 = growth as untreated, 0 = no growth, -100 = all killed)
Conditions: 10 µM unless noted
Compounds without any hit were thinned out: in the full panel of roughly 83,000, 20% have a hit.
Numbers only here, please. The scale is %.

Some molecules with known growth results, for comparison:
CCC(C)N(c1ccc(Cl)cc1)c1nc(-c2ccc(Br)cc2)cs1 (stereo not given)	131
CN(C)c1ccc(Nc2cc(-c3cccc(OC(F)(F)F)c3)nc3ccc(N4CCCC4)cc23)cc1	95.4
N#C/C(=C\c1ccc2ccccc2c1)c1cc2ccccc2[nH]1	75.6

Please look up its growth: "COC(=O)c1c2c(c(C)[n+]([O-])c1C)C(=O)C=C(NCc1ccc(Br)cc1)C2=O"
2.5

Now try "O=C(Nc1cc(Cl)ccc1O)c1ccc(Nc2ccnc(C(F)(F)F)c2)cc1" .
79

Now try "CCOC(=O)C(=Cc1cccc(Cl)c1)C(=O)OCC" .
3.56

Now try "O=C(NCCCN1CCOCC1)c1cccc(N2C(=O)/C(=C/c3ccc(F)cc3)SC2=S)c1" .
100
